- assayTarget: MBP-EALpdeB (EAL domain of PdeB) (Lactobacillus acidophilus)
- Construct: EAL domain (residues 32-267, ELLLR motif, no N-terminal membrane targeting signal), MBP fusion in pMAL-c2, expressed in E. coli BL21, amylose column; MBP kept
- Sequence (Q5FJ84 32-267): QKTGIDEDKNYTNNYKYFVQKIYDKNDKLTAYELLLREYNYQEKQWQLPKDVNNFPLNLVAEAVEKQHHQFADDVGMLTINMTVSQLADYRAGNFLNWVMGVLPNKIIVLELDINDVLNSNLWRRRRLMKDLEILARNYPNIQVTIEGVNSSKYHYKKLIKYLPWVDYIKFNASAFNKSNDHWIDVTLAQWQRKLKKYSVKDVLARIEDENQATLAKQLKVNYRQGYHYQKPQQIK
- assay: equilibrium dialysis with HPLC quantification
reportedProperty: Kd (µM)
Express it in µM; write the number only.

[Q] Entry under review: Nc1nc2c(ncn2[C@@H]2O[C@@H]3COP(=O)(O)O[C@H]4[C@@H](O)[C@H](n5cnc6c(=O)[nH]c(N)nc65)O[C@@H]4COP(=O)(O)O[C@H]3[C@H]2O)c(=O)[nH]1 . Reported Kd?
[A] 4.87

meta.source: paper PMC6123363
